Target: VEGF (used to stimulate HUVEC cells) (UniProt P15692-4 27-191, limits assumed)
Sequence (P15692 other isoform, or with tags, fused parts or gaps limits assumed): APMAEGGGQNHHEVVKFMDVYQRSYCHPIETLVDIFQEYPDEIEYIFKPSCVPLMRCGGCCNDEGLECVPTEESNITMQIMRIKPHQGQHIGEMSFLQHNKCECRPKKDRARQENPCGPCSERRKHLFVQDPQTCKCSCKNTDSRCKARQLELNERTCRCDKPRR
Experiment: cell-based or functional assay
measured-endpoint: % inhibition, VEGF HUVEC Erk phosphorylation assay (%)
Numeric answer only, unit % assumed.

[Q] Could you share which % inhibition, VEGF HUVEC Erk phosphorylation assay value was measured for VEGFBII023 (VHH, not shown: small tags and cut ends, Bivalent anti-VEGF VHH; also called VEGFBII23B04-40GS-10E07) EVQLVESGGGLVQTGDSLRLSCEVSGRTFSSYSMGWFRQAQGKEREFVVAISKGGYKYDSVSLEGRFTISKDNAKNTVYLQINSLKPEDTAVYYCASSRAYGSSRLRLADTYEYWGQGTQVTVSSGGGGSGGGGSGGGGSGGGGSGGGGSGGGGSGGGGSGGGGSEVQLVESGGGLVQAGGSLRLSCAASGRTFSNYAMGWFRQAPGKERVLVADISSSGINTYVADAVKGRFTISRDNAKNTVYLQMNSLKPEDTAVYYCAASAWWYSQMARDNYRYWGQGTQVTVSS ?
[A] 100

[Q] Now the binder VEGFBII025 (VHH, not shown: small tags and cut ends, Bivalent anti-VEGF VHH; also called VEGFBII10E07-40GS-23B04) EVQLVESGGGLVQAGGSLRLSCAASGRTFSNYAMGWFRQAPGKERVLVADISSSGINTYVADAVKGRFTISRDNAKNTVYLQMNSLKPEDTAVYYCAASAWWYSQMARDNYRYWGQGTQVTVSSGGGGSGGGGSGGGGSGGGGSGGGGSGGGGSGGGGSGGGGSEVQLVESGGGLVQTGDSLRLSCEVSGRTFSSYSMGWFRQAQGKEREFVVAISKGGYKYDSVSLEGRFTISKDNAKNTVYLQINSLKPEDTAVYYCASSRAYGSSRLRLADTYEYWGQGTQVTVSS
[A] 99
